Kindly state IC50 for each of the entries shown.
assay_system: p97 (Homo sapiens, UniProt P55072)
Sequence (P55072 2-806 limits assumed): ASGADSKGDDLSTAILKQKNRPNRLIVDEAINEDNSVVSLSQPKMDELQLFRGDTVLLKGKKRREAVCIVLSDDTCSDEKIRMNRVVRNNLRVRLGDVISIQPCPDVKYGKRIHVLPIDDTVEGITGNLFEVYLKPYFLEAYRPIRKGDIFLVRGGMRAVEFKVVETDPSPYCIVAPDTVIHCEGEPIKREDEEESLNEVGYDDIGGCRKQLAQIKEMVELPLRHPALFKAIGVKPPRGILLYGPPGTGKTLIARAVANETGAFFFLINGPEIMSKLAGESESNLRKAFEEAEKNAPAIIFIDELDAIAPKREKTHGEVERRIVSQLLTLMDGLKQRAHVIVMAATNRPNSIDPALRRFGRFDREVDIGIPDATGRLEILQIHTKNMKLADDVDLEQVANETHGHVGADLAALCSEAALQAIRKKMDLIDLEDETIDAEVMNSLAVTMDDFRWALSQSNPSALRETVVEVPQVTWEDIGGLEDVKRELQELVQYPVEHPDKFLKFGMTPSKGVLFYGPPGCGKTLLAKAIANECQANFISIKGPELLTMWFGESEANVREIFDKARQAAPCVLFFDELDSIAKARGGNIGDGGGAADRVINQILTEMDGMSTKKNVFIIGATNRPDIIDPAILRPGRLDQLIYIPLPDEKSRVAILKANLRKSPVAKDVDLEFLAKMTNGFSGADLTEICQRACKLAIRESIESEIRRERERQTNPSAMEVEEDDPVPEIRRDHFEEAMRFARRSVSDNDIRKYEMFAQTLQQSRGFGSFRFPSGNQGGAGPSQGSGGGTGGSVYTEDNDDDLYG
procedure_summary: p97 ATPase assay (Kinase Glo Plus; biomol green for compounds that interfere with luciferase)
Assay type: biochemical
condition_info: purified p97, ATP, 60 min room temperature; mean +/- standard error
One number for each entry, in µM.

Known IC50 results, listed for orientation:
# input compound: Cc1ccc(-c2nc(NC(C)c3ccccc3)c3ccccc3n2)cc1 (stereo not shown) ; wanted: its IC50
7

# input compound: "Fc1ccc2c(NCc3ccccc3)nc(NCc3ccccc3)nc2c1" ; wanted: its IC50
2.6

# input compound: "c1ccc(CNc2nc(N3CCCc4ccccc43)nc3ccccc23)cc1" ; wanted: its IC50
4.4

Can you give me IC50 for all of these, one by one?
1. Fc1cccc2nc(NCc3ccccc3)nc(NCc3ccccc3)c12
2. COc1cccc2c(NCc3ccccc3)nc(NC(C)c3ccccc3)nc12 (stereo not shown)
3. COc1ccccc1Nc1nc(NCc2ccccc2)c2ccccc2n1
4. O=[N+]([O-])c1ccc(-c2nc(NCc3ccccc3)c3ccccc3n2)cc1
5. Fc1ccccc1CNc1nc(Nc2cccc(Cl)c2)nc2ccccc12
6. Ic1cccc(Nc2nc(NCc3ccccc3)c3ccccc3n2)c1
7. Cc1cccc(Nc2nc(NCc3ccccc3)c3ccccc3n2)c1

[1.2, 12, 2.2, 11, 1.8, 5.2, 1.7]

* * *

Kindly state IC50 for each of the entries shown.
System: p97-dependent Ub^G76V-GFP degradation in HeLa cells
procedure_summary: Ub^G76V-GFP degradation (turn-over) assay
Assay type: cell-based, human
condition_info: Homo sapiens, HeLa, read-out: IC50 (μM) Ub^G76V-GFP turn over, p97-dependent Ub^G76V-GFP degradation turn-over assay
One number for each entry, in µM.

Known IC50 results, listed for orientation:
For p97-dependent Ub^G76V-GFP degradation in HeLa cells, provide IC50 of "Fc1ccccc1-c1nc(NCc2ccccc2Cl)c2ccccc2n1" please.
15

For p97-dependent Ub^G76V-GFP degradation in HeLa cells, provide IC50 of "CCCCc1cccc2c(NCc3ccccc3)nc(N3CCOc4ccccc43)nc12" please.
28

For p97-dependent Ub^G76V-GFP degradation in HeLa cells, provide IC50 of "c1ccc(CNc2nc(N3CCCCC3)nc3ccccc23)cc1" please.
7.3

More entries:
For p97-dependent Ub^G76V-GFP degradation in HeLa cells, provide IC50 of "c1ccc(CNc2ccnc(N3CCOc4ccccc43)n2)cc1" please.
27

* * *

assay_system: p97 (Homo sapiens, UniProt P55072)
procedure_summary: p97 ATPase assay (Kinase Glo Plus; biomol green for compounds that interfere with luciferase)
Type: biochemical
condition_info: purified p97, ATP, 60 min room temperature; mean +/- standard error
Kindly state IC50 for each of the entries shown.
Numbers only, in µM.

Known IC50 results, listed for orientation:
For p97 (Homo sapiens, UniProt P55072), provide IC50 of "CCc1nc2ccccc2n1CC(=O)OCC(=O)C(C#N)=C1Nc2ccccc2N1" please.
14

For p97 (Homo sapiens, UniProt P55072), provide IC50 of "COc1ccc(F)cc1Nc1nc(NCc2ccccc2)c2ccccc2n1" please.
6.7

Can you give me IC50 for all of these, one by one?
1. Cc1ccc2c(NCc3ccccc3)nc(NCc3ccccc3)nc2c1
2. FC(F)(F)c1ccc2c(NCc3ccccc3)nc(NCc3ccccc3)nc2c1
3. COc1cc2nc(NCc3ccccc3)nc(NCc3ccccc3)c2cc1OC

[2.2, 9.1, 4.4]

* * *

System: p97-dependent Ub^G76V-GFP degradation in HeLa cells
procedure_summary: Ub^G76V-GFP degradation (turn-over) assay
Format: cell-based, human
condition_info: Homo sapiens, HeLa, read-out: IC50 (μM) Ub^G76V-GFP turn over
readout_kind: IC50
Please append the unit to your numeric answer.

# input compound: "COc1ccc(Nc2nc(Nc3ccc(OC)cc3)c3ccccc3n2)cc1" ; wanted: its IC50
23 µM

* * *

assay_system: p97 (Homo sapiens)
procedure_summary: p97 ATPase assay (Kinase Glo Plus; biomol green for compounds that interfere with luciferase)
Assay type: biochemical
condition_info: purified p97, ATP, 60 min room temperature; mean +/- standard error
Description: Assay Buffer (20 μL of 2.5× concentration, where 1×=50 mM Tris pH 7.4, 20 mM MgCl2, 1 mM EDTA, 0.5 mM TCEP) was dispensed into each well of a 96 well plate. […] Luminescence was read on an Analyst AD (Molecular Devices). […] The percent of remaining activity for each reaction was calculated using the following mathematical expression: ((Test Compound-High Control)/(Low Control-High Control))*100. […] The result was expressed as mean +/− standard error. […]
Kindly state IC50 for each of the entries shown.
Give bare numbers, in µM.

# input compound: "COc1ccc(Nc2nc(NCc3ccccc3)c3ccccc3n2)cc1F" ; wanted: its IC50
0.9

# input compound: "Nc1nc(CCl)nc(Nc2ccc(Oc3ccccc3)cc2)n1" ; wanted: its IC50
14

# input compound: "Cc1ccc(Nc2nc(NCc3ccccc3)c3ccccc3n2)cc1F" ; wanted: its IC50
0.9

# input compound: "c1ccc(CNc2nc(N3CCc4ccccc43)nc3ccccc23)cc1" ; wanted: its IC50
2

More entries:
# input compound: "COc1cccc2c(NCc3ccccc3)nc(N3CCN(C(C)=O)c4ccccc43)nc12" ; wanted: its IC50
2.7

* * *

assay_system: p97 (Homo sapiens)
procedure_summary: p97 ATPase assay (Kinase Glo Plus; biomol green for compounds that interfere with luciferase)
Type: biochemical
condition_info: purified p97, ATP, 60 min room temperature; mean +/- standard error
Experimental: Assay Buffer (20 μL of 2.5× concentration, where 1×=50 mM Tris pH 7.4, 20 mM MgCl2, 1 mM EDTA, 0.5 mM TCEP) was dispensed into each well of a 96 well plate. […] Luminescence was read on an Analyst AD (Molecular Devices). […] The percent of remaining activity for each reaction was calculated using the following mathematical expression: ((Test Compound-High Control)/(Low Control-High Control))*100. […] The result was expressed as mean +/− standard error. […]
readout_kind: log10(IC50) (log10 of the value in µM)
Friendly reminder: values = log10 of IC50, unit µM.

Known log10(IC50) results, listed for orientation:
# input compound: "OCCOc1cccc2c(NCc3ccccc3)nc(N3CCOc4ccccc43)nc12" ; wanted: its log10(IC50)
-0.77

# input compound: "O=[N+]([O-])c1cccc(Nc2nc(NCc3ccccc3)c3ccccc3n2)c1" ; wanted: its log10(IC50)
0.72

# input compound: "Fc1ccccc1Nc1nc(NCc2ccccc2)c2ccccc2n1" ; wanted: its log10(IC50)
-0.07

# input compound: "COc1cccc2c(NCc3ccccc3)nc(N3CCOc4ccccc43)nc12" ; wanted: its log10(IC50)
-0.70

# input compound: "Clc1ccc2c(NCc3ccccc3)nc(NCc3ccccc3)nc2c1" ; wanted: its log10(IC50)
0.74

Can you give me log10(IC50) for all of these, one by one?
1. Clc1cccc(CNc2nc(Nc3cccc(Cl)c3)nc3ccccc23)c1
2. c1ccc(CNc2nc(N3CCOc4ccccc43)nc3ccccc23)cc1
3. c1ccc(CNc2nc(N3CCOc4ccccc43)nc3c(-c4ccccc4)cccc23)cc1
4. Clc1cccc2nc(NCc3ccccc3)nc(NCc3ccccc3)c12
5. COc1ccc2nc(NCc3ccccc3)nc(NCc3ccccc3)c2c1
6. COc1ccccc1CNc1nc(NCc2ccccc2)c2ccccc2n1

[0.70, -0.22, 0.54, 0.34, 0.88, 0.56]

* * *

Kindly state IC50 for each of the entries shown.
assay_system: p97 (Homo sapiens, UniProt P55072)
procedure_summary: p97 ATPase assay (Kinase Glo Plus; biomol green for compounds that interfere with luciferase)
Format: biochemical
condition_info: p97 ATPase assay

Known IC50 results, listed for orientation:
# input compound: CC(C)Nc1nc(Nc2cccc(Cl)c2)nc2ccccc12 [XLII] ; wanted: its IC50
> 30 µM

# input compound: COc1cccc2c(NCc3ccccc3)nc(N3CCN(C)CC3)nc12 [XI-4] ; wanted: its IC50
> 30 µM

Shifting focus to the compound that follows.
# input compound: COc1cccc2c(NCc3ccccc3)nc(N3CCN(C(C)=O)CC3)nc12 [XI-19] ; wanted: its IC50
> 30 µM

* * *

Test system: p97-dependent Ub^G76V-GFP degradation in HeLa cells
procedure_summary: Ub^G76V-GFP degradation (turn-over) assay
Format: cell-based, human
condition_info: Homo sapiens, HeLa, read-out: IC50 (μM) Ub^G76V-GFP turn over, p97-dependent Ub^G76V-GFP degradation turn-over assay
readout_kind: IC50 (µM)
One number for each entry, in µM.

Known IC50 results, listed for orientation:
# input molecule: c1ccc(CNc2nc(N3CCN(Cc4ccccc4)CC3)nc3ccccc23)cc1 [XXIII] ; wanted: its IC50
12

# input molecule: CCCOc1ccc(C(=O)CCC(=O)OCC(=O)C(C#N)=C2Nc3ccccc3N2)cc1 [XXXV] ; wanted: its IC50
6.1

Can you give me IC50 for all of these, one by one?
1. COc1cccc2c(NCc3cncs3)nc(N3CCOc4ccccc43)nc12 [XII-1]
2. COc1ccc(-c2nc(NCc3ccccc3)c3ccc(Cl)cc3n2)cc1 [I-34]
3. Nc1nc(CCl)nc(Nc2cccc3ccccc23)n1 [XXX]
4. N#CC(C(=O)COC(=O)CNc1ccc(C(F)(F)F)cc1[N+](=O)[O-])=C1Nc2ccccc2N1 [XLI]

1: 20; 2: 70; 3: 14; 4: 6.5

Can you give me IC50 for all of these, one by one?
1. CN(Cc1ccccc1)c1nc(-c2ccccc2)nc2ccccc12 [Cpd I-25]
2. CN1CCN(c2nc(NCc3ccccc3)c3ccccc3n2)CC1 [XLV]
3. COc1ccc(Nc2nc(N3CCN(S(=O)(=O)c4ccc(C)cc4)CC3)nc3ccccc23)cc1 [XLVIII]
4. COc1cccc2c(NCc3ccccc3)nc(-n3c(N)nc4cc(C)c(C)cc43)nc12 [XXI-1]

1. 17
2. 31
3. 39
4. 89
